Consider the following compounds and their measured IC50 readings.
System: LNCaP
PROTOCOL SUMMARY: Cell proliferation
Assay type: cell-based
CONDITION LABEL: Homo sapiens, 72 h, read-out: Growth inhibitory IC50, LNCaP

>  <COMPOUND>
O=C(N/N=C/c1ccc([N+](=O)[O-])o1)c1ccc(O)cc1 [NFZ, Nifuroxazide]

>  <REPORTED RELATION>
=

>  <IC50 [µM]>
13.4

$$$$
>  <COMPOUND>
O=C(N/N=C/c1ccc([N+](=O)[O-])o1)c1cc([N+](=O)[O-])cc([N+](=O)[O-])c1O

>  <REPORTED RELATION>
>

>  <IC50 [µM]>
30

$$$$
>  <COMPOUND>
CC1CS(=O)(=O)CCN1/N=C/c1ccc([N+](=O)[O-])o1 (stereo not drawn)

>  <REPORTED RELATION>
>

>  <IC50 [µM]>
30

$$$$
>  <COMPOUND>
CCN(CC)C(=S)SSC(=S)N(CC)CC

>  <REPORTED RELATION>
=

>  <IC50 [µM]>
33

$$$$
>  <COMPOUND>
CSCC1CN(/N=C/c2ccc([N+](=O)[O-])o2)C(=O)O1 (stereo not drawn)

>  <REPORTED RELATION>
>

>  <IC50 [µM]>
30

$$$$
>  <COMPOUND>
CC(=O)c1cc2c(o1)C(=O)c1ccccc1C2=O

>  <REPORTED RELATION>
=

>  <IC50 [µM]>
0.23

$$$$
